// reported Inhibition for each item listed
- System: Cryptococcus neoformans
- details: Concentration 20 uM; ASSAY_TEST Inhibition of Fungal Growth; detection method Resazurin; Absorption (OD600-OD570); plate type 384well; NBS; CORNING #3640
- Description: Antifungal activity against Cryptococcus neoformans H99 ATCC 208821 (CO-ADD:FG_002); MIC in YNB media using NBS plates, by Resazurin OD(600-570)
Entries with a potency or affinity are not part of this list.

compound: c1ccc2[nH]c(-c3cscn3)nc2c1
testedTarget: Cryptococcus neoformans
Inhibition [%]: -4.52
--
compound: OCCN(CCO)c1nc(N2CCCCC2)c2nc(N(CCO)CCO)nc(N3CCCCC3)c2n1
testedTarget: Cryptococcus neoformans
Inhibition [%]: 5.59
--
compound: Nc1nnc(-c2cccc(Cl)c2Cl)c(N)n1
testedTarget: Cryptococcus neoformans
Inhibition [%]: -2.92
--
compound: COc1ccc2cc([C@H](C)C(=O)[O-])ccc2c1.[Na+] [NAPROXEN SODIUM]
testedTarget: Cryptococcus neoformans
Inhibition [%]: -1.8
--
compound: CC(=O)Nc1ccc(CC(=O)O)cc1
testedTarget: Cryptococcus neoformans
Inhibition [%]: 4.09
--
compound: CNNCc1ccc(C(=O)NC(C)C)cc1.Cl [PROCARBAZINE HYDROCHLORIDE]
testedTarget: Cryptococcus neoformans
Inhibition [%]: -6.46
--
compound: C[C@H](CS)C(=O)N1CCC[C@H]1C(=O)O
testedTarget: Cryptococcus neoformans
Inhibition [%]: 1.67
--
compound: C[C@]12CCC(=O)C=C1CC[C@@H]1[C@@H]2[C@@H](O)C[C@@]2(C)[C@H]1CC[C@]2(O)C(=O)CO [HYDROCORTISONE]
testedTarget: Cryptococcus neoformans
Inhibition [%]: -3.64
--
compound: Cc1[nH]c(=O)c(C#N)cc1-c1ccncc1
testedTarget: Cryptococcus neoformans
Inhibition [%]: -6.55
